System: PRKD1
SETTINGS: concentration: 1 μM, replicates: in singlicate; n = 1;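 further: KINOMEscan kinase panel screen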
Listed here: items and their measured %Inh.
# output: bare number, implied unit %

Below: 3 compounds and their reported %Inh.
Cc1cccc(Nc2nc(NCCN)ncc2C(N)=O)c1: 85
N#Cc1cnc2cc(-c3cnc(CNCCN4CCOCC4)s3)ccc2c1Nc1ccc(Oc2ccccc2)cc1: 0
c1ccc(Oc2ccc(Nc3ccnc4cc(-c5ccc(CN6CCCCC6)o5)ccc34)cc2)nc1: 0

From here, focus on the item given below.
Looking for the measured %Inh of Cc1nn2c(=O)cc(N3CCO[C@H](C)C3)nc2n1Cc1cccc(Cl)c1Cl , can you help?
14

###

System: ERK4
Construct: gene MAPK4
SETTINGS: concentration: 1 μM, replicates: in singlicate; n = 1
OBSERVATION TYPE: %Inh (%)
# output: bare number, implied unit %

Below: 3 compounds and their reported %Inh.
Cn1cc(-c2cnc(N)c3c(-c4ccc5c(c4)CCN5C(=O)Cc4ccccc4)csc23)cn1 [GSK2593074]: 0
CCNC(=O)/C=C/c1n[nH]c2cc(Sc3ccccc3C(=O)NC)ccc12: 15
CC(C)c1nc(-c2cccc(NS(=O)(=O)c3c(F)cccc3F)c2)c(-c2ccnc(Nc3ccc(N4CCOCC4)nc3)n2)s1.Cl [GSK1723980]: 0

Field: %Inh (ERK4). Entry: CNc1nccc(-c2ccc3c(N)n[nH]c3c2)n1 [GSK2206003]
32

Now the compound Cc1ccc(-c2ccc3occ(-c4ccc(S(C)=O)cc4)c3c2)nn1 (centres unmarked)
0

Now the compound COc1ccc(NC(=O)c2ccoc2)cc1-c1ccc(C(=O)NCC2CC2)cc1 [GW810437]
6

Now the compound O=C(O)C(F)(F)F.O=c1[nH]ccc2nc(N[C@@H]3CCNC3)nc(Nc3ccc4c(c3)S(=O)(=O)CC4)c12 [GSK2181306]
28

Now the compound O=C(Nc1c(F)cccc1F)c1cc(C(=O)c2ccccc2F)c[nH]1 [GSK1326180]
0

###

Test system: CTK
Construct: gene MATK
SETTINGS: concentration: 1 μM, replicates: in singlicate; n = 1
OBSERVATION TYPE: %Inh (%)
# output: bare number, implied unit %

Below: 2 compounds and their reported %Inh.
Cc1ccccc1CC(=O)N1CCc2cc(-c3cn(C)c4ncnc(N)c34)ccc21: 14
Fc1cc(Cl)ccc1Nc1ccnc2cc(-c3ccc(CN4CCSCC4)o3)ccc12: 0

Looking for the measured %Inh of Cl.N#CCc1ccc(Nc2nccc(Nc3ccc(Oc4ccccc4)cc3)n2)cc1 , can you help?
28

Now the compound O=C(Nc1c(F)cccc1F)c1cc(C(=O)c2ccccc2F)c[nH]1
0

###

System: WNK4
SETTINGS: concentration: 1 μM, replicates: in singlicate; n = 1
OBSERVATION TYPE: %Inh (%)
# output: bare number, implied unit %

Below: 8 compounds and their reported %Inh.
Cl.Cl.NCC(NC(=O)c1cc(-c2cccnc2)c(-c2ccnc3[nH]ccc23)s1)c1ccccc1 (stereo not drawn): 50
Cc1ccc(O)cc1Nc1ccnc2ccc(C(C)(C)C)cc12: 0
CN(C)c1ncnc2nc[nH]c12: 13
CCNc1nccc(-c2c(-c3ccc(F)cc3)ncn2C2CCN(C)CC2)n1: 0
CCn1cnc2c(NCc3ccccc3)ncnc21: 16
CCn1c(-c2nonc2N)nc2c(-c3ccccc3)ncc(OCCCN)c21.O=C(O)C(F)(F)F.O=C(O)C(F)(F)F: 15
O=C(O)C(F)(F)F.O=c1[nH]ccc2nc(N[C@@H]3CCNC3)nc(Nc3cc(Cl)cc(Cl)c3)c12: 0
CN(c1ccc(NC(=O)Nc2cccc(Cl)c2)cc1)c1ccnc(N)n1.Cl: 5

From here, focus on the item given below.
Looking for the measured %Inh of Nc1cccc(-c2ccc3c(N)n[nH]c3c2)c1 , can you help?
0

These measurements were taken from paper PMC5540273.
